Values were extracted from PubChem BioAssay AID686979.

# Experiment Summary: qHTS for Inhibitors of human tyrosyl-DNA phosphodiesterase 1 (TDP1): qHTS in cells in presence of CPT; note: nearly all actives have a fitted effect of over 55% in size
# Experimental Context: chicken DT40 Tdp1-/-;hTDP1 cells + 20 nM CPT, ATP luminescence, 48 h; series mostly up to 46.2 µM
The campaign covered roughly 420,000 compounds. About 50,000 (12%) were called active. Not shown: some 26% with an inconclusive outcome. Calls come from the whole dose curve; as a rule, active = well fitted inhibition curve with a large enough effect; inconclusive = small, poorly fitted or top-dose-only effect; inactive = flat fitted curve, though single readings scatter. Many of the other results were omitted from the sample, so actives are more common in it than they were.
Field 'call' accepts class 1 for active, class 0 for inactive

Input: For `O=C(CC1CCCCC1)NCc1ccco1` , what call appears in the results of this test?
Output: class 0

Input: Please share the test call associated with CCCCN1C(=O)CCC(C(=O)O)C1c1ccc(OC)cc1 (configuration not stated) .
Output: class 0

Input: What is the recorded call for this compound in the test? `CCOc1ccc(CNC(=O)c2cc(=O)[nH]c3ccc(S(=O)(=O)N4CCCCC4)cc23)cc1`
Output: class 0

Input: Write down the call the test reported for this compound. Item: `O=S(=O)(Nc1n[nH]c(C(F)(F)F)n1)c1ccccc1`
Output: class 0

Input: Returns: the outcome recorded for `CC1CCN(C(=O)c2ccc(S(=O)(=O)Cc3cc(F)ccc3F)c([N+](=O)[O-])c2)CC1` in this assay.
Output: class 1

Input: Could you check what this test reported for `Cc1ccc(Nc2c(O)nc[nH]c2=O)cc1C` ?
Output: class 0

Input: Short answer needed: outcome of this test for `CS(=O)(=O)N(CC(=O)N1CCc2ccccc2C1)c1ccc(Br)cc1` ?
Output: class 0

* * *

# Experiment Summary: qHTS for Inhibitors of human tyrosyl-DNA phosphodiesterase 1 (TDP1): qHTS in cells in presence of CPT; note: nearly all actives have a fitted effect of over 55% in size; note: potency is the fitted concentration of half-maximal effect
# Experimental Context: chicken DT40 Tdp1-/-;hTDP1 cells + 20 nM CPT, ATP luminescence, 48 h; series mostly up to 46.2 µM
Screen size: about 420,000 compounds; about 50,000 (12%) were called active. About 26% were inconclusive and are not listed. This excerpt belongs to a sample that is enriched for actives.
Measurement Type: Potency

So for `CCOc1ccc(CNC(=O)c2cccc(Nc3nc4ccccc4n4nnnc34)c2)cc1OC` , the logged Potency turned out to be inactive

get_value(item= `CCOC(=O)c1c(C)[nH]c(C)c1C(=O)COC(=O)/C=C/c1cccc([N+](=O)[O-])c1` , readout=Potency) returns inactive

Reported Potency for `COc1ccc(N2CCN(Cc3ccc(Br)s3)CC2)cc1` was inactive

Sure, the documented Potency for `CCOC(=O)c1ccccc1OC(=O)Oc1ccccc1C(=O)OCC` is inactive

Memo: `CCOC(=O)[C@]12CCC=C1N(Cc1ccccc1)C(=O)[C@H](CC(=O)N1CCCC1)C2` , reported Potency: inactive

Consider `O=C(Cc1c[nH]c2ccccc12)N/N=C/c1cccc(F)c1` . Its measured Potency is inactive

***
Entry `CCc1ccc(CNCc2c(C(=O)O)n(Cc3ccc(F)cc3Cl)c3cc(OC)ccc23)cc1` — recorded Potency = 11.6 µM (active)

So for `COc1ccc(/C=N/NC(=O)c2ccncc2)cc1CN1CCCc2ccccc21` , the logged Potency turned out to be inactive

The measured Potency associated with `CCOC(=O)[C@]12CCCC=C1N(CCC1=CCCCC1)C(=O)[C@H](CC(=O)NCCCOC)C2` reads 14.6 µM (active)

* * *

# Experiment Summary: qHTS for Inhibitors of human tyrosyl-DNA phosphodiesterase 1 (TDP1): qHTS in cells in presence of CPT; note: nearly all actives have a fitted effect of over 55% in size; note: potency is the fitted concentration of half-maximal effect
# Experimental Context: chicken DT40 Tdp1-/-;hTDP1 cells + 20 nM CPT, ATP luminescence, 48 h; series mostly up to 46.2 µM
Out of some 420,000 compounds screened, about 50,000 (12%) were called active. About 26% were inconclusive and are not listed. Shown is part of a subset that was picked to be rich in actives.
Measurement Type: Potency

Take a look at these entries with their results.
So for `CSC(=S)N/N=C/c1c[nH]c2ccccc12` , the logged Potency turned out to be 0.651 µM (active)

Field Potency (entry `O=c1[nH]c(CSc2ncc(-c3ccc(F)cc3)n2Cc2ccco2)nc2ccccc12` ) reads 18.4 µM (active)

# Potency (compound: `O=C(COC(=O)Cn1[nH]c(=O)c2ccccc2c1=O)Nc1c(Cl)cccc1C(F)(F)F` ) is inactive

Reported Potency for `N=c1oc2ccccc2cc1C(=O)N/N=C/c1ccccc1` was inactive

Next:
The value of Potency measured for the compound `CC(=O)NNc1cc(=O)c2c(=O)n(C)c(=O)n(C)c2[nH]1` turned out to be inactive

* * *

# Experiment Summary: qHTS for Inhibitors of human tyrosyl-DNA phosphodiesterase 1 (TDP1): qHTS in cells in presence of CPT; note: nearly all actives have a fitted effect of over 55% in size
# Experimental Context: chicken DT40 Tdp1-/-;hTDP1 cells + 20 nM CPT, ATP luminescence, 48 h; series mostly up to 46.2 µM
Among all 420,000 compounds or so, about 50,000 (12%) were called active. About 26% were inconclusive and are not listed. Calls come from the whole dose curve; as a rule, active = well fitted inhibition curve with a large enough effect; inconclusive = small, poorly fitted or top-dose-only effect; inactive = flat fitted curve, though single readings scatter. Shown is part of a subset that was picked to be rich in actives.
Parameter call: string, one of active, inactive

Input: Dear colleague, could you share the recorded outcome for `COc1ccc(-c2[nH][nH]c(=O)c2NC(=O)c2ccc([N+](=O)[O-])cc2)cc1` when you have a moment?
Output: inactive

Input: Call for entry `O=c1o[nH]c(-c2ccccc2)c1N=Nc1c(F)cccc1Cl` :
Output: inactive

Input: Test call, this compound: COC(=O)C1=C(C(=O)c2ccc(C)cc2)C(c2ccccc2)n2nnnc2N1 (centres undefined)
Output: inactive

Input: // param item: `O=C(COC(=O)c1ccc(O)cc1O)c1ccc2c(c1)OCCO2` ; yields the recorded call
Output: inactive

Input: Status in this test for `C=CC[C@H](CC(=O)OC(C)(C)C)C(=O)OC[C@H]1CCCN1C(=O)[C@H](CC=C)CC(=O)N(CCO)Cc1ccccc1` ?
Output: active

Input: Would you mind telling me which call this test gave `Cc1ccsc1/C=N/n1c(=S)[nH]nc(C)c1=O` ?
Output: active

Input: Fill in: this test's call for `O=C(NNC(=O)c1cnccc1C(F)(F)F)c1ccc(Cl)cc1` is ___
Output: inactive

Input: # fetch the recorded call for `c1ccc(Cc2ccc(OCCn3ccnc3)cc2)cc1` here
Output: active

Input: What is the recorded call for this compound in the test? `COc1cc2[nH]c(=S)n(Cc3ccc(F)cc3)c(=O)c2cc1OC`
Output: inactive

Input: # fetch the recorded call for O=C(O)c1ccc(OCC2CCCO2)cc1 (centres undefined) here
Output: inactive

Input: Status in this test for `Brc1ccc(OCCn2ccnc2)cc1` ?
Output: inactive

Input: Each compound tested received a call. Report the one for CCc1nc2ccccc2c(C(=O)OC2CCCCC2=O)c1C (centres undefined) .
Output: inactive

Input: Just curious, what result did `Cc1cc(SCc2c(F)cccc2Cl)nc(=O)[nH]1` get here?
Output: inactive

Input: Assay result, entry `Cn1cccc1C(=O)OCC(=O)c1ccc(Br)s1` — outcome?
Output: inactive

Input: Look up the recorded call for COc1ccc(OC)c(NC(=O)c2cc(-c3cc(F)ccc3OCC3CCCO3)n[nH]2)c1 (centres undefined) in this test.
Output: active

Input: What was the test verdict on `COc1cc(NC(=O)CCS(=O)(=O)c2ccc3c(c2)oc(=O)n3C)cc(OC)c1` ?
Output: inactive

Input: What outcome does the record of this test show for `COc1ccc(C(=O)O)cc1S(=O)(=O)NCc1cccnc1` ?
Output: inactive

Input: Would you mind telling me which call this test gave `Cc1ccc(SCC(=O)NNC(=O)c2ccc(S(C)(=O)=O)cc2)cc1` ?
Output: inactive

Input: Can you look up the reported call for `Cc1nnc(Sc2nc3c(c(=O)[nH]c(=O)n3C)n2Cc2ccccc2)s1` for me?
Output: inactive

* * *

# Experiment Summary: qHTS for Inhibitors of human tyrosyl-DNA phosphodiesterase 1 (TDP1): qHTS in cells in presence of CPT; note: nearly all actives have a fitted effect of over 55% in size
# Experimental Context: chicken DT40 Tdp1-/-;hTDP1 cells + 20 nM CPT, ATP luminescence, 48 h; series mostly up to 46.2 µM
The campaign covered roughly 420,000 compounds. About 50,000 (12%) were called active. Another 26% or so got no clear call; they are omitted. The call rests on the fitted dose curve; in most records, active means well fitted inhibition curve with a large enough effect; inconclusive means small, poorly fitted or top-dose-only effect; inactive means flat fitted curve, though single readings scatter. What follows is part of a selection rich in actives, with near analogues and random picks from the rest.
Write down one outcome, taken from t for active, f for inactive

Input: Short answer needed: outcome of this test for `Cc1ccc(CNC(=O)c2c(-c3ccccc3)noc2C)cc1` ?
Output: f

Input: Field: outcome | Entry: `NS(=O)(=O)c1ccc(NC(=O)COC(=O)c2cc3ccccc3oc2=O)cc1`
Output: f

Input: // param item: CC(=O)NC(Cc1c[nH]c2ccccc12)C(=O)NCCc1ccccc1 (stereo unspecified) ; yields the recorded call
Output: f

Input: Assay result, entry `C=CC[C@@H](CC(=O)N[C@H](CO)Cc1ccccc1)C(=O)N[C@H](C)COC(=O)[C@@H](CC=C)Cc1ccc(F)cc1` — outcome?
Output: t

Input: Hi, sorry to bother you, what did the test record for `COc1cc(-c2cc(C(=O)OCC(=O)Nc3ccc4c(c3)OCO4)c3ccccc3n2)cc(OC)c1OC` ?
Output: f

Input: What did the test return for COC(=O)C(Cc1c[nH]c2ccccc12)NC(=O)CCNC(=O)c1ccco1 (stereo unspecified) ?
Output: f

Input: Test call for this molecule, please: `COC(=O)c1sccc1NC(=O)CCC1CCCC1`
Output: f

Input: Called result for `O=C(CCc1c[nH]c2ccccc12)NCCOc1ccccc1`
Output: f

Input: What is the recorded call for this molecule in the test? `O=C(COC(=O)c1ccc(F)cc1)Nc1ccc2c(c1)OCO2`
Output: f

Input: Which outcome did this test record for the molecule `C=CC[C@@H](CC(=O)NCCO)C(=O)N[C@H](C)COC(=O)[C@@H](CC=C)CC(=O)OC(C)(C)C` ?
Output: f

Input: Per the assay record, what outcome was assigned to CCCN(CCC)C(=O)C(Cc1ccccc1)NS(=O)(=O)c1ccc2c(c1)c(=O)n(C)c(=O)n2C (stereo unspecified) ?
Output: f

Input: Could you kindly confirm the outcome this assay logged for CC(=O)NC(Cc1c[nH]c2ccccc12)C(=O)O (stereo unspecified) ?
Output: f

Input: For `C=CC[C@H](CC(=O)NCCO)C(=O)N[C@@H](COC(=O)[C@@H](CC=C)Cc1ccc(F)cc1)Cc1c[nH]c2ccccc12` , which call appears in the assay record?
Output: t

Input: In this assay, the call recorded for `CCOC(=O)C(=CNNc1ccsc1C(=O)OC)C(=O)OCC` was what?
Output: t

Input: Dear all, I need the recorded test outcome for `Cc1ccc2cc(CCNC(=O)c3c(-c4ccccc4Cl)noc3C)c(=O)[nH]c2c1` , thank you.
Output: t

Input: Which result was noted for this molecule in the test: `CN(CC(=O)NCc1ccc2c(c1)OCO2)CC(=O)Nc1ccc(F)c(F)c1F`
Output: f
